system: DU-145; experiment: Cytotoxicity against human DU145 cells after 7 days by MTT assay; assay type: functional, cell-based; conditions: DU-145, 168 h
pIC50: −log10 of the molar value.
Could you label it 1.0 if measured pIC50 is 6 or higher, and 0.0 otherwise?

# bool: pIC50 of CC[C@H]1CN2CCc3cc(OC)c(OC)cc3[C@@H]2C[C@@H]1C[C@@H]1c2cc(OC)c(OC)cc2CCN1C(=S)SCCC(N)=O >= 6
0.0

// repeat for CC[C@H]1CN2CCc3cc(OC)c(OC)cc3[C@@H]2C[C@@H]1C[C@@H]1c2cc(OC)c(OC)cc2CCN1C(=S)SCC(=O)c1ccc(Cl)cc1 and report
0.0

Please give the result for CC[C@H]1CN2CCc3cc(OC)c(OC)cc3[C@@H]2C[C@@H]1C[C@@H]1c2cc(OC)c(OC)cc2CCN1C(=S)SCCCCC(=O)OC too.
0.0

Can you handle CC[C@H]1CN2CCc3cc(OC)c(OC)cc3[C@@H]2C[C@@H]1C[C@@H]1c2cc(OC)c(OC)cc2CCN1C(=S)S next?
1.0

Try CC[C@H]1CN2CCc3cc(OC)c(OC)cc3[C@@H]2C[C@@H]1C[C@@H]1c2cc(OC)c(OC)cc2CCN1C(=S)SCCN1C(=O)c2ccccc2C1=O next.
0.0

One more compound: CCCCCCSC(=S)N1CCc2cc(OC)c(OC)cc2[C@H]1C[C@H]1C[C@H]2c3cc(OC)c(OC)cc3CCN2C[C@@H]1CC
0.0

* * *

tested on: PC-3; assay: Cytotoxicity against human PC3 cells after 5 days by MTT assay; format: functional, cell-based; details: PC-3, 120 h
Task for the reader: assign each of the following compounds its reported pIC50.
Units for pIC50: none; it is -log10 of a concentration expressed in mol/L.

Which measured pIC50 value corresponds to CC[C@H]1CN2CCc3cc(OC)c(OC)cc3[C@@H]2C[C@@H]1C[C@@H]1c2cc(OC)c(OC)cc2CCN1C(=S)SCC(=O)c1ccc(Cl)cc1 ?
5.57

Next compound up: CC[C@H]1CN2CCc3cc(OC)c(OC)cc3[C@@H]2C[C@@H]1C[C@@H]1c2cc(OC)c(OC)cc2CCN1C(=S)S
7.04

Quick one: CC[C@H]1CN2CCc3cc(OC)c(OC)cc3[C@@H]2C[C@@H]1C[C@@H]1c2cc(OC)c(OC)cc2CCN1C(=S)SCc1ccccc1
5.69

// query: CC[C@H]1CN2CCc3cc(OC)c(OC)cc3[C@@H]2C[C@@H]1C[C@@H]1c2cc(OC)c(OC)cc2CCN1C(=S)SCCN1C(=O)c2ccccc2C1=O
5.56

# repeat for CC[C@H]1CN2CCc3cc(OC)c(OC)cc3[C@@H]2C[C@@H]1C[C@@H]1c2cc(OC)c(OC)cc2CCN1C(=S)SCCCCC(=O)OC
5.31

Same lookup for CC[C@H]1CN2CCc3cc(OC)c(OC)cc3[C@@H]2C[C@@H]1C[C@@H]1c2cc(OC)c(OC)cc2CCN1C(=S)SCC(=O)Nc1ccc(Br)cc1 , please.
5.56

Next entry: CC[C@H]1CN2CCc3cc(OC)c(OC)cc3[C@@H]2C[C@@H]1C[C@@H]1c2cc(OC)c(OC)cc2CCN1C(=S)SCCC(N)=O
5.18

Same question for CCOC(=O)c1ccc(NC(=O)CSC(=S)N2CCc3cc(OC)c(OC)cc3[C@H]2C[C@H]2C[C@H]3c4cc(OC)c(OC)cc4CCN3C[C@@H]2CC)cc1 please.
5.57

Proceed to CCCCCCSC(=S)N1CCc2cc(OC)c(OC)cc2[C@H]1C[C@H]1C[C@H]2c3cc(OC)c(OC)cc3CCN2C[C@@H]1CC
5.49
